// provenance: patent US20220112296A1

Biological target: T1, Human CD3eg linker (human)
T1 construct: CD3 epsilon and gamma subunits joined by a 29-mer linker, C-terminal Flag-tag (in the entry); also called recombinant human CD3
T1 chain: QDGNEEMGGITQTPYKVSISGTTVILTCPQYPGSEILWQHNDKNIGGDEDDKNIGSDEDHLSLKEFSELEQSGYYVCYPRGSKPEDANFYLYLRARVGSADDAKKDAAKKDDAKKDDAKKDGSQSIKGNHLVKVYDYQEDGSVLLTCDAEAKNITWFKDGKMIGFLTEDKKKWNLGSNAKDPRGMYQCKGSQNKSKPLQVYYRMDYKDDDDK
Test: SPR Biacore T200, 25 C, Ab captured
Readings of Kd for the listed binders
Please state the figure in nM; there is no need to write the unit.

Recorded Kd, per entry:
H0888L0581 (antibody, V domains shown, Dual-Ig, captured by anti-human Fc; also called dBBDu183H0888/dBBDu072L0581) VH: QVQLVESGGGLVQPGRSLRLSCAASGFKFSNVWMHWVRQAPGKGLEWVAQIKDKWNAYAAYYAPSVKGRFTISRDDSKNSIYLQMNSLKTEDTAVYYCHYIHYASASTLLPAFGIDAWGQGTTVTVSS VL: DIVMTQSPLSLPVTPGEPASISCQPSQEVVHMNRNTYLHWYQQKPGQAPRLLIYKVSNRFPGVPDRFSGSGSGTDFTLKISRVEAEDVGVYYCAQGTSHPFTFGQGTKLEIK : 20.2
H0868L0581 (antibody, V domains shown) VH: QVQLVESGGGLVQPGRSLRLSCAASGFKFSNVWMHWVRQAPGKGLEWVAQIKDKYNAYAAYYAPSVKGRFTISRDDSKNSIYLQMNSLKTEDTAVYYCHYVHYASASTLLPAFGVDAWGQGTTVTVSS VL: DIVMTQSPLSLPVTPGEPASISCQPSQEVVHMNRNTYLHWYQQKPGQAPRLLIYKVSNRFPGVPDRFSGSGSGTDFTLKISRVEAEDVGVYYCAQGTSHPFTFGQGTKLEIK : 173
H1595L0581 (antibody, V domains shown) VH: QVQLVESGGGLVQPGRSLRLSCAASGFKFSNTWMHWVRQAPGKGLEWVAQIKDKYNAYAAYYAPSVKGRFTISRDDSKNSIYLQMNSLKTEDTAVYYCHYIHYASASTLLPAFGVDAWGQGTTVTVSS VL: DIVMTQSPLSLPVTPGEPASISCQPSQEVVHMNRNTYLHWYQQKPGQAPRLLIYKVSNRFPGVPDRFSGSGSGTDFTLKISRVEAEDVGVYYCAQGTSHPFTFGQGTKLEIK : 57

Please look at the following binder next.
Please report the recorded Kd for H1572L0581 (antibody, V domains shown) VH: QVQLVESGGGLVQPGRSLRLSCAASGFKFSNVWFHWVRQAPGKGLEWVAQIKDKYNAYAAYYAPSVKGRFTISRDDSKNSIYLQMNSLKTEDTAVYYCHYVHYASASTLLPAEGVDAWGQGTTVTVSS VL: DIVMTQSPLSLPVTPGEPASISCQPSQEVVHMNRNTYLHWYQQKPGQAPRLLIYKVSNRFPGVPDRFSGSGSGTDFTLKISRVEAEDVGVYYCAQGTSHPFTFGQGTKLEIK .
286
